These data points were gathered from patent US20030068675.

Target: T1, ZFP SBS#1476 (synthetic)
T1 chain: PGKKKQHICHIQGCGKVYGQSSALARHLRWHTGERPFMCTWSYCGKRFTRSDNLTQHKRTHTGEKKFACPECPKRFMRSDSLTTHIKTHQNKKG
Experiment: EMSA
Details: tags: MBP fusion
value-kind: Kd (nM)

binder="TTGAAGGTT (dsDNA) DNA 1: TTGAAGGTT DNA 2: AACCTTCAA" endpoint_unit=nM readout_value=0.305
